TARGET OR SYSTEM: Lysophosphatidylserine lipase ABHD12 (Homo sapiens) (UniProt Q8N2K0)
Sequence (whole entry): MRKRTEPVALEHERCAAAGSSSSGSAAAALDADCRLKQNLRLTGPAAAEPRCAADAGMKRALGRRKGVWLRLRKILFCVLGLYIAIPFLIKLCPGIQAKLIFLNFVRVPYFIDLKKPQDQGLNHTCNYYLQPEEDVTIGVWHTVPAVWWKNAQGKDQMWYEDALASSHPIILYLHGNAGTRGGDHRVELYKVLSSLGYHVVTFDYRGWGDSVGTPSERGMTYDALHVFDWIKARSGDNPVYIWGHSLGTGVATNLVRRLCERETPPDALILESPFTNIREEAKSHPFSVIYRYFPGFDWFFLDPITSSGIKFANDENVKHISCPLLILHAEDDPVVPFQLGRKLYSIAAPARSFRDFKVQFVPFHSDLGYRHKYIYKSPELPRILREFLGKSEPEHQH
METHOD DESCRIPTION: Inhibition of human ABHD12 expressed in […] cells using 2-AG as substrate assessed as glycerol liberation at 10 uM preincubated for 30 mins followed by 2-AG addition measured for 90 mins by fluorescent glycerol assay relative to control
Type: cell-based
Parameters: scale not given: the % may be the effect or the level left

| MOL | Activity (%) |
| --- | --- |
| O=C(NC(=S)Nc1ccc(S(=O)(=O)Nc2ccccc2)cc1)c1ccc(-c2ccccc2)cc1 | 78 |
| CC(C)NS(=O)(=O)c1ccc(NC(=S)NC(=O)c2ccc(-c3ccccc3)cc2)cc1 | 65 |
| NS(=O)(=O)c1ccc(NC(=S)NC(=O)c2ccc(-c3ccccc3)cc2)cc1 | 84 |
| COc1ccc(C(=O)NC(=S)Nc2ccc(S(=O)(=O)NC(C)C)cc2)cc1 | 78 |
| CC(=O)NS(=O)(=O)c1ccc(NC(=S)NC(=O)c2ccc(C(C)C)cc2)cc1 | 88 |
| CN(C)S(=O)(=O)c1ccc(NC(=S)NC(=O)c2ccc(-c3ccccc3)cc2)cc1 | 74 |
| CCCNS(=O)(=O)c1ccc(NC(=S)NC(=O)c2ccc(-c3ccccc3)cc2)cc1 | 77 |
| CCCCc1ccc(NS(=O)(=O)c2ccc(NC(=S)NC(=O)c3ccc(-c4ccccc4)cc3)cc2)cc1 | 83 |
| O=C(NC(=S)Nc1ccc(S(=O)(=O)Nc2ccc(Cl)cc2)cc1)c1ccc(-c2ccccc2)cc1 | 82 |
